- assay_overview: folding stability dG unfold from chymotrypsin proteolysis; higher = more stable
measured_endpoint: folding stability dG unfold (kcal/mol)
One number for each entry, in kcal/mol.

Examples from the recorded data:
1. SAGMIEITLYPPKAVVDVTVTIGGESESRTIPVDGKSKEEVIEEAREEVKAEYPDKAITTKVTEVPGDGSAG [r5_180_JUSTAS] : 1.03
2. SAGGSAGGSAAKVISVNPETGEVVVEYPDGSVGYFKVKGGVVEEVRSSPVLPVPEDDPLFTSAGGSAGGSAG [r3_406_TrMRF] : 1.2
3. SKKKKKKKKKKPKTVIIEIDVKEMSEEEIREILKKLPKNVKRVIIIAKSEEEKEKLKELLKEAGYEVEIVSA [r9_919_TrROS_Hall] : 1.94
4. SDKVEIWIPIPDGFWVRIKYDKPGKREITIWMPEDNPEFRKHGSMDQFIKHLARKLGLDPDKVKVDMYPMSA [r9_401_TrROS] : 4.11

Now look at this entry.
Note to self: folding stability dG unfold recorded for SAGKSIKIPYIIRFPSPNGEPHLMRIKEVTINPKPGMVKIKFQMPGKKQTHTVPPNNIEILPDPEEILKSAG [r5_15_TrROS] was -0.0282
